Overview of recorded A50 i.v. for various molecules
Test system: adult male ICR mice
assayDetails: 55° C. warm water tail-flick test (antinociception)
Type: in vivo, mouse
runConditions: mouse 55° C. tail-flick, i.v. administration, time of peak effect
Non-standard residues stand in square brackets, D forms with d. Residues, ends and D or L forms follow the SMILES beside them. *: point of attachment. X2 = OC[C@H]1O[C@@H](O[C@H]2[C@H](O)[C@@H](O)[C@H](*)O[C@@H]2CO)[C@H](O)[C@@H](O)[C@H]1O; NMeF = CN[C@@H](Cc1ccccc1)C(=O)O

molecule	A50 i.v.
C[C@@H](NC(=O)[C@@H](N)Cc1ccc(O)cc1)C(=O)NCC(=O)N(C)[C@@H](Cc1ccccc1)C(=O)NCCO [DAMGO 1, [D-Ala^2,Me-Phe^4Gly^5(ol)]enkephalin, reference compound]	1.88 µmol/kg
C[C@@H](NC(=O)[C@@H](N)Cc1ccc(O)cc1)C(=O)NCC(=O)N(C)[C@@H](Cc1ccccc1)C(=O)N[C@@H](CO[C@@H]1O[C@H](CO)[C@@H](O[C@@H]2O[C@H](CO)[C@H](O)[C@H](O)[C@H]2O)[C@H](O)[C@H]1O)C(N)=O [Compound 5] (H-Y[dA]G[NMeF]S(X2)-NH2; N-terminus assumed)	1.15 µmol/kg
